Provide the recorded kd for the entries that follow.
- Test system: T1, human PD-L2 antigen (Homo sapiens, UniProt Q9BQ51)
- T1 sequence (Q9BQ51 20-273): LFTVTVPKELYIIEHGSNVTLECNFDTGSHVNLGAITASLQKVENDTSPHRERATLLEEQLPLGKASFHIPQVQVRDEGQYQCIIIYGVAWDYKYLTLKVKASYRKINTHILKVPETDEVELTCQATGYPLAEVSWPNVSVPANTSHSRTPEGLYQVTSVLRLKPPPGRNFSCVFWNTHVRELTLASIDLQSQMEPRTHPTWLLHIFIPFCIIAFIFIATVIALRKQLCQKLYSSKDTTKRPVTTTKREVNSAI
- Protocol summary: Single cycle kinetics on Biacore 8K, binding to human PD-L2 antigen
- Test conditions: Table 2, cell culture supernatants
Give bare numbers, in s⁻¹.

Answered cases to consult:
>  <Molecule>
VH1/VK3: humanized anti-PD-L2 variant; SEQ ID NO: 2/SEQ ID NO: 12 (antibody, V domains shown) VH: QVQLVQSGAELKKPGSSVKVSCKASGYAFSNYFIEWVKQPPGKGLEWIGLNIPGSGGSNYAEKFKGRATITADKSTSTAYMELSSLTSEDSAVYFCARRRLPPDWYFDVWGQGTTVTVSS VL: DVVMTQSPLSLPVTLGQPASISCRSSQSLVHSGGNTYLHWYQQKPGQPPKLLIYKVSNRFSGVPDRFSGSGSGTDFTLKISRVEAEDVGVYFCSQSTHVPWTFGGGTKVEIK

>  <Property label>
kd

>  <Readout unit>
s⁻¹

>  <Experimental value>
0.000365

$$$$
>  <Molecule>
VH1/VK1: humanized anti-PD-L2 variant; SEQ ID NO: 2/SEQ ID NO: 10 (antibody, V domains shown) VH: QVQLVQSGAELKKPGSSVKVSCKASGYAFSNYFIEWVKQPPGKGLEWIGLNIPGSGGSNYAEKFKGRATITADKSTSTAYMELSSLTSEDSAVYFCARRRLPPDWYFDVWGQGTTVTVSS VL: DVVMTQSPLSLPVTLGQPASISCRSSQSLVHSDGNTYLHWYQQKPGQPPKLLIYKVSNRFSGVPDRFSGSGSGTDFTLKISRVEAEDVGVYFCSQSTHVPWTFGGGTKVEIK

>  <Property label>
kd

>  <Readout unit>
s⁻¹

>  <Experimental value>
0.00011

$$$$
>  <Molecule>
VH3/VK2: humanized anti-PD-L2 variant; SEQ ID NO: 4/SEQ ID NO: 11 (antibody, V domains shown) VH: QVQLVQSGAEVKKPGSSVKVSCKASGYAFSNYFIEWVKQPPGKGLEWIGLNIPGSGGSNYAEKFKGRVTITADKSTSTAYMELSSLRSEDSAVYFCARRRLPPDWYFDVWGQGTTVTVSS VL: DVVMTQSPLSLPVTLGQPASISCRSSQSLVHSDGNTYLHWYQQKPGQPPKLLIYKVSNRFSGVPDRFSGSGSGTDFTLKISRVEAEDVGVYYCSQSTHVPWTFGGGTKVEIK

>  <Property label>
kd

>  <Readout unit>
s⁻¹

>  <Experimental value>
0.000132

$$$$

For this molecule ( VH2/VK2: humanized anti-PD-L2 variant; SEQ ID NO: 3/SEQ ID NO: 11 (antibody, V domains shown) VH: QVQLVQSGAEVKKPGSSVKVSCKASGYAFSNYFIEWVKQPPGKGLEWIGLNIPGSGGSNYAEKFKGRATITADKSTSTAYMELSSLRSEDSAVYFCARRRLPPDWYFDVWGQGTTVTVSS VL: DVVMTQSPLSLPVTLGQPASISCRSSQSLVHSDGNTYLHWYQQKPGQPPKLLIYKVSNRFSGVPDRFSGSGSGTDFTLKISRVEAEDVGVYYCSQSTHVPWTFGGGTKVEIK ), measured kd is 0.000122

Origin of the recorded values: patent US20250179187A1
